Sequence of the target: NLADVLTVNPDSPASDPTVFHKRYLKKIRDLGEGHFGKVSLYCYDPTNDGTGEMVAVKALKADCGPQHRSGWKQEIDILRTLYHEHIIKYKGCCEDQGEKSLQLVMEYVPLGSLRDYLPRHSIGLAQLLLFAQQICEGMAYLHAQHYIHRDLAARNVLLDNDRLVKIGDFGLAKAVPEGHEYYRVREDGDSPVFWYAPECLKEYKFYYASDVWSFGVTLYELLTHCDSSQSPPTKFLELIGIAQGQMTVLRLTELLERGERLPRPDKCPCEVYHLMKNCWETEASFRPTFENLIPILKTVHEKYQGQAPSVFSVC
assayEndpoint: Ki
Give the figure together with its unit, number first.

For orientation, consider the following solved cases.
# compound, assayEndpoint, assayValue
rows = [
    ("O=C(Cc1nc2cnc3[nH]ccc3c2n1C1CCNCC1)N1CC(F)(F)C1 [Example 269]", "Ki", "1700 nM"),
    ("COCCN(C)C(=O)NC1CCC(n2c(C)nc3cnc4[nH]ccc4c32)C1 (racemic) [Example 738]", "Ki", "351 nM"),
    ("Cc1nc2cnc3[nH]ccc3c2n1C1(C)CCN(Cc2ccnc(C#N)c2)CC1 [Example 758]", "Ki", "1010 nM"),
]

Field: next compound
Q) Reported Ki, compound CCC(COC)n1c(C(C)O)nc2cnc3[nH]ccc3c21 (single isomer, unassigned) [Example 182] : ____
A) 955 nM
